The following compounds are listed with their measured refractive index values.
- measurementProtocol: refractive index (Na D-line) (dimensionless)
- runConditions: 303.15 K; Liquid; Standard Abbe refractometry
Enter the number alone.

Cc1cccc(C)c1 [1,3-dimethylbenzene] ... 1.4922
Cc1ccc(C)cc1 [1,4-dimethylbenzene] ... 1.4907
Cc1ccccc1C [1,2-dimethylbenzene] ... 1.5002
c1ccccc1 [benzene] ... 1.4949
Cc1cc(C)cc(C)c1 [1,3,5-trimethylbenzene] ... 1.4944

Req: Need refractive index, item C1COCCO1 [1,4-dioxane]
Resp: 1.4182

Req: Need refractive index, item Cc1ccccc1 [toluene]
Resp: 1.4913

====

The following compounds are listed with their measured mass density values.
- runConditions: 293.15 K; Liquid; Pycnometric method
± gives the expanded uncertainty stated by the source.
// return the numeric value with its unit appended

Answered examples (5):
c1ccccc1 [benzene] ... 878.95 ± 0.8 kg/m3
Cc1ccc(C)cc1 [1,4-dimethylbenzene] ... 861.17 ± 0.67 kg/m3
Cc1ccccc1C [1,2-dimethylbenzene] ... 879.83 ± 0.66 kg/m3
Cc1ccccc1 [toluene] ... 867.08 ± 0.71 kg/m3
Cc1cccc(C)c1 [1,3-dimethylbenzene] ... 864.31 ± 0.66 kg/m3

Req: Need mass density, item Cc1cc(C)cc(C)c1 [1,3,5-trimethylbenzene]
Resp: 865.37 ± 0.63 kg/m3

Req: Need mass density, item C1COCCO1 [1,4-dioxane]
Resp: 1033.59 ± 0.87 kg/m3

====

- runConditions: 288.15 K; Liquid; Pycnometric method
Lab note: anything with mass density below 900 kg/m3 is marked 1; values at 900 kg/m3 or higher are marked 0.

Cc1cccc(C)c1 [1,3-dimethylbenzene] ... 1
C1COCCO1 [1,4-dioxane] ... 0
Cc1ccccc1 [toluene] ... 1
Cc1cc(C)cc(C)c1 [1,3,5-trimethylbenzene] ... 1

Kindly review the next compound as well.
Req: Answer whether the compound Cc1ccc(C)cc1 [1,4-dimethylbenzene] has mass density strictly less than 900 kg/m3
Resp: 1

====

The following compounds are listed with their measured mass density values.
- runConditions: 298.15 K; Liquid; Pycnometric method
Write the number in kg/m3 without appending the unit.

Answered examples (6):
Cc1cccc(C)c1 [1,3-dimethylbenzene] ... 860.02
Cc1ccccc1 [toluene] ... 862.36
C1COCCO1 [1,4-dioxane] ... 1027.95
c1ccccc1 [benzene] ... 873.61
Cc1ccc(C)cc1 [1,4-dimethylbenzene] ... 856.82
Cc1cc(C)cc(C)c1 [1,3,5-trimethylbenzene] ... 861.45

Req: Need mass density, item Cc1ccccc1C [1,2-dimethylbenzene]
Resp: 875.57

====

- measurementProtocol: refractive index (Na D-line) (dimensionless)
- runConditions: 288.15 K; Liquid; Standard Abbe refractometry
parameterMeasured: refractive index
Enter the number alone.

c1ccccc1 [benzene] ... 1.5042
Cc1cc(C)cc(C)c1 [1,3,5-trimethylbenzene] ... 1.502
C1COCCO1 [1,4-dioxane] ... 1.4245
Cc1ccc(C)cc1 [1,4-dimethylbenzene] ... 1.4985
Cc1ccccc1C [1,2-dimethylbenzene] ... 1.5083
Cc1ccccc1 [toluene] ... 1.4998

Kindly review the next compound as well.
Req: Need refractive index, item Cc1cccc(C)c1 [1,3-dimethylbenzene]
Resp: 1.4999
